- protocol-description: In vitro thromboxane receptor antagonist against U-46619 induced aggregation of washed human platelets
property: pIC50
Give bare numbers, as −log10 of the molar value.

Challenge: Given the entry O=C(O)CCC(CCCCNS(=O)(=O)c1ccc(Cl)cc1)CCCc1cccnc1 (stereo unspecified) , report its measured pIC50.
Response given: 7.74

----------
- target-under-test: Thromboxane-A synthase (Homo sapiens, UniProt P24557)
- Sequence (P24557 whole entry): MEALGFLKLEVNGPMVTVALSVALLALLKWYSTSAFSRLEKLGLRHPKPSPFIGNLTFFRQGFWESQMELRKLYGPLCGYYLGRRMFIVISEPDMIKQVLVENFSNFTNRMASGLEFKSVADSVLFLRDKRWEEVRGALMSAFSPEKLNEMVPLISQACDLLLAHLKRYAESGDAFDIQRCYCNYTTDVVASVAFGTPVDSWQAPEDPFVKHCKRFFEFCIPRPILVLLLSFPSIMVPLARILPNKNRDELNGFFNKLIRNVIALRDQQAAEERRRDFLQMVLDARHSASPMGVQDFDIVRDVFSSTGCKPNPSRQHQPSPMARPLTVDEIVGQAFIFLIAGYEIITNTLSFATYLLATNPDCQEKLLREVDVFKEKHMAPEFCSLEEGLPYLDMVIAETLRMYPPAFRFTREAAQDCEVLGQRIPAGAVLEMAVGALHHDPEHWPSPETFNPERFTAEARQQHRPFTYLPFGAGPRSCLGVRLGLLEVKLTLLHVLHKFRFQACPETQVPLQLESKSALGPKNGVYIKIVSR
Please go through the items and note down their pIC50.
Numbers only, as −log10 of the molar value.

Previously resolved entries follow.
> print(dat)
                                   compound                         target.under.test  property  recorded.value
1  O=C(O)CC/C=C\CC[C@H]1[C@H](OCc2ccc(-c3ccccc3)cc2)CO[C@H]1c1cccnc1  Thromboxane-A synthase (Homo sapiens, UniProt P24557)     pIC50            7.19
2  O=C(O)CC/C=C\CC[C@H]1[C@@H](OCc2ccc(-c3ccccc3)cc2)CO[C@@H]1c1cccnc1 (stereo in doubt; (+))  Thromboxane-A synthase (Homo sapiens, UniProt P24557)     pIC50            8.37
3  O=C(O)CC/C=C\CC[C@H]1[C@@H](OCc2ccc(-c3ccccc3)cc2)CO[C@H]1c1cccnc1  Thromboxane-A synthase (Homo sapiens, UniProt P24557)     pIC50            7.49

Now look at this one.
Challenge: Requested field: pIC50. Item: O=C(O)CC/C=C\CC[C@@H]1[C@@H](c2cccnc2)OC[C@H]1OCc1ccc(-c2ccccc2)cc1
Response given: 7.66
